Hello, the source for this data is ChEMBL document CHEMBL4819093, in case you need it.

Experiment: in vivo
Conditions: C57BL/6N, mouse, po, 10 mg/kg
Assay endpoint: AUC(0-t) at 24 h
Answer format: number, then unit.

For O=C(NCc1ccncc1)Nc1ccc2nc(-c3ccccc3)nn2c1 , what is its reported AUC(0-t) at 24 h?
25 µM·h

----------
Assay: Solubility of the compound at pH 1.2
Details: buffer
Assay endpoint: solubility

For O=C(NCc1ccncc1)Nc1ccc2nc(-c3ccccc3)nn2c1 , what is its reported solubility?
> 680 µg/mL

----------
Experiment: Solubility of the compound at pH 6.8
Details: buffer
Assay endpoint: solubility (µg/mL)
Kindly provide the numeric value in µg/mL only, without the unit symbol.

For O=C(NCc1ccncc1)Nc1ccc2nc(-c3ccccc3)nn2c1 , what is its reported solubility?
92

----------
Assay: 1-Octanol/PBS buffer distribution coefficient, log D of the compound at pH 7.4
Assay endpoint: logD
// print number alone

Answered cases to consult:
[[record]]
mol = "O=C(NCc1ccncc1)Nc1ccc2nc(-c3ccccc3)nn2c1"
assay_result = 3

[[record]]
mol = "Cn1cccc1-c1nc2ccc(NC(=O)NCc3ccncc3)cn2n1"
assay_result = 2.6

[[record]]
mol = "O=C(NCc1ccncc1)Nc1ccc2cn(-c3ccccc3)nc2c1"
assay_result = 3.2


Now consider the entry below.
For O=C(NCc1ccncc1)Nc1ccc2nc(-c3ccc(OC(F)(F)F)cc3)nn2c1 , what is its reported logD?
4.4

----------
Molecular target: UniProt:P10635
Experiment: Inhibition of CYP2D6 (unknown origin) at 10 uM measured after 10 mins
Assay type: ADME
Recorded inhibition at 10 min, 10 µM, one value per entry.
Kindly provide the numeric value in % only, without the unit symbol.

Answered cases to consult:
[[record]]
mol = "Cn1cccc1-c1nc2ccc(NC(=O)NCc3ccncc3)cn2n1"
measured_on = "UniProt:P10635"
assay_endpoint = "inhibition at 10 min, 10 µM"
assay_result = 27

[[record]]
mol = "CC(C)n1nccc1-c1nc2ccc(NC(=O)NCc3ccncc3)cn2n1"
measured_on = "UniProt:P10635"
assay_endpoint = "inhibition at 10 min, 10 µM"
assay_result = 17


For O=C(NCc1ccncc1)Nc1ccc2nc(-c3cccc(OC(F)(F)F)c3)nn2c1 , what is its reported inhibition at 10 min, 10 µM?
36

For O=C(NCc1ccncc1)Nc1ccc2cn(-c3ccccc3)nc2c1 then?
50

For COCCn1nccc1-c1nc2ccc(NC(=O)NCc3ccncc3)cn2n1 then?
13

For O=C(NCc1cnco1)Nc1ccc2nc(-c3ccccc3)nn2c1 then?
13

For O=C(NCc1ccncc1)Nc1ccc2nc(-c3ccccc3)nn2c1 then?
21

----------
Target: CYP2D6 (Homo sapiens, UniProt P10635)
Sequence (P10635 whole entry): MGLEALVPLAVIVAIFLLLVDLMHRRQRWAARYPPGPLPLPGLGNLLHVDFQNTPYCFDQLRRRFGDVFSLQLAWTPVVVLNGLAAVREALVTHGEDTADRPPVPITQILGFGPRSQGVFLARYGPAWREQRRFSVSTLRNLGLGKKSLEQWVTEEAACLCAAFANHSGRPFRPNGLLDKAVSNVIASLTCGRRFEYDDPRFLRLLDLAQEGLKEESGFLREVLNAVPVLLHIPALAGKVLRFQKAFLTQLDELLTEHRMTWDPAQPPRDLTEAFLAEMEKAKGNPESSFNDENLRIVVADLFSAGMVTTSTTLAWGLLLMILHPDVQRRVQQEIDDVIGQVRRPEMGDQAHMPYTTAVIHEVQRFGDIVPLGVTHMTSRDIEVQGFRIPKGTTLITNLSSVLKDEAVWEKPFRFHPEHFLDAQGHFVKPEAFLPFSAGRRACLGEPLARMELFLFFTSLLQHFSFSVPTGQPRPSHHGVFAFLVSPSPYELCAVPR
Experiment: Inhibition of CYP2D6 (unknown origin) at 10 uM measured after 10 mins
Format: ADME
Recorded inhibition at 10 min, 10 µM, one value per entry.
Kindly provide the numeric value in % only, without the unit symbol.

Answered cases to consult:
[[record]]
mol = "O=C(NCc1ccncc1)Nc1ccc2nc(-c3ccc(OC(F)(F)F)cc3)nn2c1"
assay_result = 24

[[record]]
mol = "O=C(NCc1ccncc1)Nc1ccc2cc(-c3ccccc3)nn2c1"
assay_result = 70

[[record]]
mol = "O=C(NCc1cn[nH]c1)Nc1ccc2nc(-c3ccccc3)nn2c1"
assay_result = 23

[[record]]
mol = "O=C(NCc1ccncc1)Nc1ccc2nc(-c3ccccc3OC(F)(F)F)nn2c1"
assay_result = 50


Now consider the entry below.
Give recorded inhibition at 10 min, 10 µM with CYP2D6 (Homo sapiens, UniProt P10635) for the following compound: Cn1nccc1-c1nc2ccc(NC(=O)NCc3ccncc3)cn2n1
16
